IC50 ratio by entry:
biological target: Mu-type opioid receptor (Cavia porcellus) (UniProt P97266); assay: Inhibition of morphine binding to Opioid receptor mu 1 of guinea pig ileal longitudinal muscle
Sequence (P97266 whole entry): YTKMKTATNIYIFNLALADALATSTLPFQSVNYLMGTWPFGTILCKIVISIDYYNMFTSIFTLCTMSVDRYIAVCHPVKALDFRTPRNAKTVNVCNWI

- Molecule: "COc1ccc(/C=C2/C[C@@]3(O)C4Cc5ccc(O)c6c5C3(CCN4CC3CC3)[C@@H](O6)C2=O)cc1 (stereo partly specified)"
  IC50 ratio: 3.75
- Molecule: "COc1ccccc1/C=C1/C[C@@]2(O)C3Cc4ccc(O)c5c4C2(CCN3CC2CC2)[C@@H](O5)C1=O (stereo partly specified)"
  IC50 ratio: 8.49
- Molecule: "Cc1ccc(/C=C2/C[C@@]3(O)C4Cc5ccc(O)c6c5C3(CCN4CC3CC3)[C@@H](O6)C2=O)cc1 (stereo partly specified)"
  IC50 ratio: 7.05
- Molecule: "O=C1/C(=C\\c2cccc(F)c2)C[C@@]2(O)C3Cc4ccc(O)c5c4C2(CCN3CC2CC2)[C@H]1O5 (stereo partly specified)"
  IC50 ratio: 7.83
- Molecule: "O=C1/C(=C\\c2cccc([N+](=O)[O-])c2)C[C@@]2(O)C3Cc4ccc(O)c5c4C2(CCN3CC2CC2)[C@H]1O5 (stereo partly specified)"
  IC50 ratio: 1.15
- Molecule: "O=C1/C(=C\\c2ccc(-c3cccc4ccccc34)cc2)C[C@@]2(O)C3Cc4ccc(O)c5c4C2(CCN3CC2CC2)[C@H]1O5 (stereo partly specified)"
  IC50 ratio: 1.23

====

test: Relative affinity for delta and kappa receptors
Selectivity ratio vs 6: less than gives Y; not less than gives N.

- Compound: "Cc1ccc(/C=C2/C[C@@]3(O)C4Cc5ccc(O)c6c5C3(CCN4CC3CC3)[C@@H](O6)C2=O)cc1 (some centres not stated)"
  Class name: "N"
- Compound: "O=C1/C(=C\\c2ccc([N+](=O)[O-])cc2)C[C@@]2(O)C3Cc4ccc(O)c5c4C2(CCN3CC2CC2)[C@H]1O5 (some centres not stated)"
  Class name: "Y"
- Compound: "COc1cccc(/C=C2/C[C@@]3(O)C4Cc5ccc(O)c6c5C3(CCN4CC3CC3)[C@@H](O6)C2=O)c1 (some centres not stated)"
  Class name: "N"
- Compound: "COc1ccc(/C=C2/C[C@@]3(O)C4Cc5ccc(O)c6c5C3(CCN4CC3CC3)[C@@H](O6)C2=O)cc1 (some centres not stated)"
  Class name: "Y"
- Compound: "O=C1/C(=C\\c2cccc(F)c2)C[C@@]2(O)C3Cc4ccc(O)c5c4C2(CCN3CC2CC2)[C@H]1O5 (some centres not stated)"
  Class name: "N"
- Compound: "O=C1/C(=C\\c2ccc(F)cc2)C[C@@]2(O)C3Cc4ccc(O)c5c4C2(CCN3CC2CC2)[C@H]1O5 (some centres not stated)"
  Class name: "Y"
- Compound: "O=C1/C(=C\\c2ccccc2F)C[C@@]2(O)C3Cc4ccc(O)c5c4C2(CCN3CC2CC2)[C@H]1O5 (some centres not stated)"
  Class name: "N"

====

IC50 ratio by entry:
target: Kappa-type opioid receptor (Cavia porcellus) (UniProt P41144); experiment: Inhibition of ethylketazocine binding to Opioid receptor kappa 1 of guinea pig ileal longitudinal muscle
Sequence (P41144 whole entry): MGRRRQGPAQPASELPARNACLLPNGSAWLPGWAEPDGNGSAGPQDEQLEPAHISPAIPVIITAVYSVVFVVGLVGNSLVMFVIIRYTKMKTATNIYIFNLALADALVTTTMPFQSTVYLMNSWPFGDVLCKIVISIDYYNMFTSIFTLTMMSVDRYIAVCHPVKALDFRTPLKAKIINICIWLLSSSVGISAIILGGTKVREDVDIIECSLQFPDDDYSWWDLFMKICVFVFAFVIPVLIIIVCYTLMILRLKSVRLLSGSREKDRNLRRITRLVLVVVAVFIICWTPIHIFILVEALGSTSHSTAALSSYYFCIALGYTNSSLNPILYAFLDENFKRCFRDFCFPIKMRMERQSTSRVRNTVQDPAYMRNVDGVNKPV

- Molecule: "COc1ccccc1/C=C1/C[C@@]2(O)C3Cc4ccc(O)c5c4C2(CCN3CC2CC2)[C@@H](O5)C1=O (some centres undefined)"
  Experimental target: "Kappa-type opioid receptor (Cavia porcellus) (UniProt P41144)"
  IC50 ratio: 1.05
- Molecule: "COC(=O)c1ccc(/C=C2/C[C@@]3(O)C4Cc5ccc(O)c6c5C3(CCN4CC3CC3)[C@@H](O6)C2=O)cc1 (some centres undefined)"
  Experimental target: "Kappa-type opioid receptor (Cavia porcellus) (UniProt P41144)"
  IC50 ratio: 0.62
- Molecule: "O=C1/C(=C\\c2ccccc2F)C[C@@]2(O)C3Cc4ccc(O)c5c4C2(CCN3CC2CC2)[C@H]1O5 (some centres undefined)"
  Experimental target: "Kappa-type opioid receptor (Cavia porcellus) (UniProt P41144)"
  IC50 ratio: 1.65
- Molecule: "O=C1/C(=C\\c2ccc(F)cc2)C[C@@]2(O)C3Cc4ccc(O)c5c4C2(CCN3CC2CC2)[C@H]1O5 (some centres undefined)"
  Experimental target: "Kappa-type opioid receptor (Cavia porcellus) (UniProt P41144)"
  IC50 ratio: 1.86
- Molecule: "O=C1/C(=C\\c2cccc(F)c2)C[C@@]2(O)C3Cc4ccc(O)c5c4C2(CCN3CC2CC2)[C@H]1O5 (some centres undefined)"
  Experimental target: "Kappa-type opioid receptor (Cavia porcellus) (UniProt P41144)"
  IC50 ratio: 1.26
- Molecule: "O=C1/C(=C\\c2ccc([N+](=O)[O-])cc2)C[C@@]2(O)C3Cc4ccc(O)c5c4C2(CCN3CC2CC2)[C@H]1O5 (some centres undefined)"
  Experimental target: "Kappa-type opioid receptor (Cavia porcellus) (UniProt P41144)"
  IC50 ratio: 1.07
- Molecule: "O=C1/C(=C\\c2ccc(-c3ccc4ccccc4c3)cc2)C[C@@]2(O)C3Cc4ccc(O)c5c4C2(CCN3CC2CC2)[C@H]1O5 (some centres undefined)"
  Experimental target: "Kappa-type opioid receptor (Cavia porcellus) (UniProt P41144)"
  IC50 ratio: 1.07
- Molecule: "O=C1/C(=C\\c2cccc([N+](=O)[O-])c2)C[C@@]2(O)C3Cc4ccc(O)c5c4C2(CCN3CC2CC2)[C@H]1O5 (some centres undefined)"
  Experimental target: "Kappa-type opioid receptor (Cavia porcellus) (UniProt P41144)"
  IC50 ratio: 0.5
- Molecule: "COc1cccc(/C=C2/C[C@@]3(O)C4Cc5ccc(O)c6c5C3(CCN4CC3CC3)[C@@H](O6)C2=O)c1 (some centres undefined)"
  Experimental target: "Kappa-type opioid receptor (Cavia porcellus) (UniProt P41144)"
  IC50 ratio: 0.95
- Molecule: "Cc1ccc(/C=C2/C[C@@]3(O)C4Cc5ccc(O)c6c5C3(CCN4CC3CC3)[C@@H](O6)C2=O)cc1 (some centres undefined)"
  Experimental target: "Kappa-type opioid receptor (Cavia porcellus) (UniProt P41144)"
  IC50 ratio: 2.45
- Molecule: "O=C1/C(=C\\c2ccccc2)C[C@@]2(O)[C@H]3Cc4ccc(O)c5c4[C@@]2(CCN3CC2CC2)[C@H]1O5"
  Experimental target: "Kappa-type opioid receptor (Cavia porcellus) (UniProt P41144)"
  IC50 ratio: 2
- Molecule: "O=C1/C(=C\\c2ccccc2Cl)C[C@@]2(O)C3Cc4ccc(O)c5c4C2(CCN3CC2CC2)[C@H]1O5 (some centres undefined)"
  Experimental target: "Kappa-type opioid receptor (Cavia porcellus) (UniProt P41144)"
  IC50 ratio: 0.85
- Molecule: "COc1ccc(/C=C2/C[C@@]3(O)C4Cc5ccc(O)c6c5C3(CCN4CC3CC3)[C@@H](O6)C2=O)cc1 (some centres undefined)"
  Experimental target: "Kappa-type opioid receptor (Cavia porcellus) (UniProt P41144)"
  IC50 ratio: 0.92
- Molecule: "O=C1/C(=C\\c2ccc(-c3cccc4ccccc34)cc2)C[C@@]2(O)C3Cc4ccc(O)c5c4C2(CCN3CC2CC2)[C@H]1O5 (some centres undefined)"
  Experimental target: "Kappa-type opioid receptor (Cavia porcellus) (UniProt P41144)"
  IC50 ratio: 1.85

Where these numbers come from: ChEMBL document CHEMBL1131147
